Test target: Adenosine receptor A3 (Homo sapiens)
Sequence (P0DMS8 whole entry): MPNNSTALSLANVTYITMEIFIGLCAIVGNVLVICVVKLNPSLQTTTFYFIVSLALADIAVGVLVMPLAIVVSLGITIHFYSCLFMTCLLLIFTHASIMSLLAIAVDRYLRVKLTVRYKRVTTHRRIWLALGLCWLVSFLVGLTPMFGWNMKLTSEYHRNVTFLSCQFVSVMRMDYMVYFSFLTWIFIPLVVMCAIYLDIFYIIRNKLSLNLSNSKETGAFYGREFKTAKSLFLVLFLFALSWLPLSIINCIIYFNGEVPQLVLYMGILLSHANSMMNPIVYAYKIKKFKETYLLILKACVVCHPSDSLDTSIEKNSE
Provide the reported pKi of each item.
Answers are plain numbers, as −log10 of the molar value.

Sample records with pKi:
Chemical string | pKi
O=C(Nc1nc2nn(CCCc3ccccc3)cc2c2nc(-c3ccco3)nn12)C(c1ccccc1)c1ccccc1 | 7.90
CCn1cc2c(nc(NC(=O)Cc3ccc4ccccc4c3)n3nc(-c4ccco4)nc23)n1 | 7.44
COc1ccc(NC(=O)Nc2nc3nn(CCc4c(Br)cc(Br)cc4Br)cc3c3nc(-c4ccco4)nn23)cc1 | 7.60

Provide pKi for all items below, preserving their order.
1. CCCn1cc2c(nc(NC(=O)C(c3ccccc3)c3ccccc3)n3nc(-c4ccco4)nc23)n1
2. CCn1cc2c(nc(NC(=O)C(c3ccccc3)c3ccccc3)n3nc(-c4ccco4)nc23)n1
3. CC(C)CCn1cc2c(nc(NC(=O)Cc3ccc(-c4ccccc4)cc3)n3nc(-c4ccco4)nc23)n1

1: 9.03; 2: 9.01; 3: 6.57

All values here come from ChEMBL document CHEMBL1154073.
